EXPERIMENTAL_TARGET: IL16_4, Q14005
Sequence (Q14005 1229-1329): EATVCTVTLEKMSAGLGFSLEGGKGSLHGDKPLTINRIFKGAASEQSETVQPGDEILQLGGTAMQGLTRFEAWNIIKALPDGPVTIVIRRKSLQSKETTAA
TEST_SUMMARY: holdup assay
Design: key: below the threshold = too weak to quantify, mostly under pKd 3.1 to 4
STUDY_CONDITIONS: plain residues with an end cap or a label only (N-terminal biotin on a linker: ado-ado)
PARAMETER: pKd

Worked set:
PRAEAEDSFL [PDGFRB, P09619] = below the threshold
TPPAAKKSRI [BAZ1A, Q9NRL2] = 3.69
QHKTQLQTLI [BPIFA2, Q96DR5] = below the threshold
TLPRKRMSSI [GPRC6A, Q5T6X5] = below the threshold
RRLPGKETMA [GRIK2, Q13002] = below the threshold

Turning now to a further binder:
Find the measured pKd of KSGKQTMLVV [TRIM29, Q14134] and report it.
3.65
